Just for reference, PubChem BioAssay (NCI) is where these values come from.

For each entry below, report its TGI value.
Test system: LOX IMVI melanoma
Experiment: NCI tumour cell line growth inhibition, 48 h

# count of solved cases: 5
Compound: N=C(N)c1ccc(-c2ccc(-c3cc(Cl)cc(Cl)c3)o2)nc1
Study system: LOX IMVI melanoma
Result: 3.41 µM
--
Compound: CCCCCCCCCCCC(=O)Oc1c(Cl)cc(Cl)c(OC(=O)C(=O)Oc2c(Cl)cc(Cl)c(OC(=O)CCCCCCCCCCC)c2Cl)c1Cl
Study system: LOX IMVI melanoma
Result: > 100 µM
--
Compound: COc1ccc2nc(-n3c(/C=C/c4ccccc4O)nc4ccccc4c3=O)sc2c1
Study system: LOX IMVI melanoma
Result: > 100 µM
--
Compound: CCOC(=O)c1nc2ccc(Cl)cc2c2c1Cc1ccccc1-2
Study system: LOX IMVI melanoma
Result: > 100 µM
--
Compound: COc1ccc(OC)c(/C=C2\SC(=S)NC2=O)c1
Study system: LOX IMVI melanoma
Result: > 100 µM

Batch request: TGI for each of the following compounds.
1. Cc1ccc(N=Cc2ccc3c(c2)OCO3)cc1C
2. COc1cc(Cn2c3ccccc3c3cc(C)c4c(c32)C=CC(C)(CCC=C(C)C)O4)cc2c1[nH]c1ccccc12 (stereo unspecified)

Return:
> 100 µM
> 100 µM

Batch request: TGI for each of the following compounds.
1. [N-]=[N+]=Nc1c(C=O)c(=O)n2c3c(cccc13)CCC2
2. O=C(/C=C/c1csc(-c2ccccc2)n1)NCc1ccc(C(=O)NCCc2ccccc2)cc1
3. CC#C[C@]1(O)CC[C@H]2[C@@H]3CCC4=CC(=O)CCC4=C3[C@@H](c3ccc4c(c3)OCO4)C[C@@]21C
4. CC(=O)N1C(c2[nH]c3ccccc3c2-c2ccccc2)CCN1c1ccccc1 (stereo unspecified)
5. CCOC(=O)c1c(N2CCCC2)nsc1Nc1ccc(F)cc1
6. COc1ccc(/C=C2\NC(=S)N(CN3CCCCC3)C2=O)cc1
7. O=C(/C=C(\O)c1ccccc1)C(=O)NNc1ccc([N+](=O)[O-])cc1[N+](=O)[O-]

Return:
["25.4 µM", "> 100 µM", "253 µM", "> 10 µM", "> 100 µM", "93.3 µM", "64.3 µM"]
